Values were extracted from patent US10925971B2.

# System: Macaca fascicularis PRLR (mfPRLR.mmh; SEQ ID NO:403)
# Sequence (as listed by the source): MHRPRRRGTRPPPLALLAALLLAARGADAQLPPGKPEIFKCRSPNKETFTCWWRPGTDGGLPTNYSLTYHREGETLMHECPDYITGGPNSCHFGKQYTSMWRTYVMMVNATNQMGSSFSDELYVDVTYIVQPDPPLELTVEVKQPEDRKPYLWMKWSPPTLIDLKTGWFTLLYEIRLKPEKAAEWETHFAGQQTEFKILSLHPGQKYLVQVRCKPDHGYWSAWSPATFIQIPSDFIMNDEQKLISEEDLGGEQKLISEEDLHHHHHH
# ASSAY NOTES: Surface plasmon resonance (Biacore T200), antibody-capture format
# Type: binding
# EXPERIMENTAL SETUP: 25° C., analyte mfPRLR.mmh
MEASURE NAME: ka
Returns: string containing the number followed by the unit.

Using known records, supply ka for H1H6800P: fully human anti-PRLR antibody, human IgG1 Fc; HCVR/LCVR SEQ ID NOs 194/202 (antibody, V domains shown) VH: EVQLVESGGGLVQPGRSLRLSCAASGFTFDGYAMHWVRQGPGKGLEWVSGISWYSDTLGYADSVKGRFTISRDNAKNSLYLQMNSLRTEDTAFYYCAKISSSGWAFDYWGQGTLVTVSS VL: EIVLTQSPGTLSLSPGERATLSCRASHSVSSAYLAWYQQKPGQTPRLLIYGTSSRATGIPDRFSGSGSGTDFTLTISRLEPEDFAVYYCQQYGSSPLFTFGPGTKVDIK
303000 M/s
